Measured values drawn from paper PMC3477164 for this set.

Catalogue of binders with associated Kd
biological target: T1, Eukaryotic initiation factor 4E (eIF4E), full-length human (human, UniProt P06730 1-217); test: SPR; eIF4E amine coupled to a CM5 chip (about 1000 RU, m7GTP present at immobilisation), peptides injected; 10 mM Hepes pH 7.6, 0.15 M NaCl, 1 mM DTT, 0.1% Tween20, 3% DMSO; Biacore T100; Kd from the equilibrium responses (Keq), 1:1 model, three titrations; settings: both partners purified
T1 construct: eIF4E, human, full length
T1 sequence (P06730 whole entry): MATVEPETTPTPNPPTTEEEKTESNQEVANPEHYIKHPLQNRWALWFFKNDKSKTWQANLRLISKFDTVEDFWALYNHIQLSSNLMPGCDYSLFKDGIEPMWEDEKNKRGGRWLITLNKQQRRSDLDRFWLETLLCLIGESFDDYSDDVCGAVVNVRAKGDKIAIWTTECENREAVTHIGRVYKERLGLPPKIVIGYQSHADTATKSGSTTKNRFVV
PROPERTY LABEL: Kd (nM)

[[record]]
binder = "KKRYDREFLVGF (eIF4G1 peptide with L10V; source: synthetic peptide (Mimotopes), HPLC purified to >90%) [eIF4G1-L10V peptide]"
property_label = "Kd"
result_value = 4540

[[record]]
binder = "KKRYDREFLLAF (eIF4G1 peptide with G11A; source: synthetic peptide (Mimotopes), HPLC purified to >90%) [eIF4G1-G11A peptide]"
property_label = "Kd"
result_value = 309

[[record]]
binder = "KKRYDREFLLGL (eIF4G1 peptide with F12L; also called F12L mutant peptide; source: synthetic peptide (Mimotopes), HPLC purified to >90%) [eIF4G1-F12L peptide]"
property_label = "Kd"
result_value = 761

[[record]]
binder = "KKRYSRDQLVAL (phage display selected 12-mer … with its N-terminal SLH changed to KKR of the eIF4G1 peptide; source: synthetic peptide (Mimotopes), HPLC purified to >90%) [PHAGESOL peptide]"
property_label = "Kd"
result_value = 76.7

[[record]]
binder = "KKRYDREFLLGF (also called eIF4G1-WT; eIF4G1 peptide; source: synthetic peptide (Mimotopes), HPLC purified to >90%) [eIF4G1 wild type peptide]"
property_label = "Kd"
result_value = 580

[[record]]
binder = "KKRYDREQLLGF (eIF4G1 peptide with F8Q; also called eIF4G-F/Q; source: synthetic peptide (Mimotopes), HPLC purified to >90%) [eIF4G1-F8Q peptide]"
property_label = "Kd"
result_value = 1630

[[record]]
binder = "KKRYDRDFLLGF (eIF4G1 peptide with E7D; also called E7D mutant peptide; source: synthetic peptide (Mimotopes), HPLC purified to >90%) [eIF4G1-E7D peptide]"
property_label = "Kd"
result_value = 784

[[record]]
binder = "KKRYSREFLLGF (eIF4G1 peptide with D5S; also called eIF4G-D5S; source: synthetic peptide (Mimotopes), HPLC purified to >90%) [eIF4G1-D5S peptide]"
property_label = "Kd"
result_value = 103

